Data origin, for the record: ChEMBL document CHEMBL5291721

Target: Alpha-2C adrenergic receptor (Homo sapiens); note: assay procedure not described here
Sequence (P18825 whole entry): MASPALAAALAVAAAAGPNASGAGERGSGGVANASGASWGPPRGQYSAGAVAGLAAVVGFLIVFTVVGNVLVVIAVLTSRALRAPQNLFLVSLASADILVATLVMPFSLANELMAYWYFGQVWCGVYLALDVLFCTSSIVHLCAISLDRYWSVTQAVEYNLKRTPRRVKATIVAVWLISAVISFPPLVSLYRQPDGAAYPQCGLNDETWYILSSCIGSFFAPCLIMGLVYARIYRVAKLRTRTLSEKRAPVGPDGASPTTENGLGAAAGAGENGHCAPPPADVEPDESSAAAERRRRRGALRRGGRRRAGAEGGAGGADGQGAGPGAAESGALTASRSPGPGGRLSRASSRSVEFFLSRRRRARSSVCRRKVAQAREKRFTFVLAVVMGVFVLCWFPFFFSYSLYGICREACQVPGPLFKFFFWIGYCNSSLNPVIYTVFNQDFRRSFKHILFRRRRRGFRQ
Type: functional
Metric name: AC50

Report AC50 for C=CCN1CCCC1CNC(=O)c1cc(S(N)(=O)=O)cc(OC)c1OC (configuration not stated) [VERALIPRIDE] please.
10 µM

Lookup Cc1cccc(Nc2ccccc2C(=O)O)c1C
> 10 µM

Record: COC(=O)C1=C(C)NC(C)=C(C(=O)OC2CCCN(Cc3ccccc3)C2)C1c1cccc([N+](=O)[O-])c1 (configuration not stated)
27 µM

Next compound up: O=[N+]([O-])O[C@@H]1CO[C@H]2[C@@H]1OC[C@@H]2O [ISOSORBIDE MONONITRATE]
> 10 µM

Proceed to COc1ccc(C(=O)Nc2ccccc2CCC2CCCCN2C)cc1 (configuration not stated) [ENCAINIDE]
> 10 µM

Then this compound: CC(C)C(=O)c1c(C(C)C)nn2ccccc12
> 30 µM

For CNS(=O)(=O)Cc1ccc2[nH]cc(CCN(C)C)c2c1 then?
> 30 µM

Again, but for CN(C)CC/C=C1\c2ccccc2CSc2ccccc21 [DOTHIEPIN]
9.8 µM

Entry Cc1c(C(=O)NN2CCCCC2)nn(-c2ccc(Cl)cc2Cl)c1-c1ccc(Cl)cc1 please
13 µM

# iterate: C#C[C@]1(O)CC[C@H]2[C@@H]3CCC4=Cc5oncc5C[C@]4(C)[C@H]3CC[C@@]21C
> 10 µM

Try this compound too: CN1C(=O)OC(C)(C)C1=O
> 10 µM

Cool, now CN1C(=O)C(O)N=C(c2ccccc2Cl)c2cc(Cl)ccc21 (configuration not stated)
> 30 µM

One more compound: COCCCN1CCC(NC(=O)c2cc(Cl)c(N)c3c2OCC3)CC1 [PRUCALOPRIDE]
14 µM

Follow-up entry: CC(Oc1c(Cl)cccc1Cl)C1=NCCN1 (configuration not stated)
0.42 µM

Can you handle CCN(CC)C(=O)N[C@H]1C[C@@H]2c3cccc4[nH]cc(c34)C[C@H]2N(C)C1 [TERGURIDE] next?
0.0031 µM

Follow-up entry: CC(=O)O[C@H]1C[C@@H]2CC[C@@H]3[C@H](CC[C@@]4(C)[C@H]3C[C@H]([N+]3(C)CCCCC3)[C@@H]4OC(C)=O)[C@@]2(C)C[C@@H]1N1CCCCC1
> 30 µM

Could you do the same for Nc1nc(N)nc(-c2cc(Cl)ccc2Cl)n1 , please?
> 30 µM

Check Cc1cc(C)c(NC(=O)CN(CC(=O)O)CC(=O)O)c(C)c1Br too.
> 30 µM

For CN(C)CCC=C1c2ccccc2C(C)(C)c2ccccc21 then?
9.67 µM

What about this compound? O=P1(NCCCl)OCCCN1CCCl (configuration not stated) [IFOSFAMIDE]
> 30 µM

And for Cc1ccc(S(=O)(=O)NC(=O)NN2CC3CCCC3C2)cc1 (configuration not stated) [GLICLAZIDE] ?
> 30 µM

Consider next the compound COC(=O)[C@H]1[C@H]2C[C@@H]3c4[nH]c5cc(OC)ccc5c4CCN3C[C@H]2C[C@@H](OC(=O)/C=C/c2cc(OC)c(OC)c(OC)c2)[C@@H]1OC in the same way.
> 10 µM

Next compound up: CCOc1ccc(Cc2cc([C@@H]3O[C@H](CO)[C@@H](O)[C@H](O)[C@H]3O)ccc2Cl)cc1
> 10 µM

Then this compound: CCC1(CC)C(=O)NCC(C)C1=O (configuration not stated)
> 30 µM

What about NC(=O)OCC(COC(N)=O)c1ccccc1 [FELBAMATE] ?
> 10 µM

Follow-up item: CN(C)CCc1c[nH]c2ccc(C[C@H]3COC(=O)N3)cc12
> 30 µM

Can you handle CCCCN1C[C@H](O)[C@@H](O)[C@H](O)[C@H]1CO next?
> 30 µM
